- Procedure details: Venetoclax solubility in FaSSIF and FaSSIF with dissolved PI
- Format: physicochemical
- Particulars: FaSSIF without PI, reference of the PI test
Observation type: solubility (µg/mL)
Hi! Could you send only the number? It should be in µg/mL, unit omitted.

Req: I am curious: what solubility value has been reported for `CC1(C)CCC(CN2CCN(c3ccc(C(=O)NS(=O)(=O)c4ccc(NCC5CCOCC5)c([N+](=O)[O-])c4)c(Oc4cnc5[nH]ccc5c4)c3)CC2)=C(c2ccc(Cl)cc2)C1` ?
Resp: 5.2

----------
- Procedure details: Biorelevant solubility in FaSSIF and FeSSIF
- Assay type: physicochemical
- Particulars: FaSSIF; 37 °C, n = 3
Observation type: solubility (µg/mL)
Hi! Could you send only the number? It should be in µg/mL, unit omitted.

Req: I am curious: what solubility value has been reported for `CC1(C)CCC(CN2CCN(c3ccc(C(=O)NS(=O)(=O)c4ccc(NCC5CCOCC5)c([N+](=O)[O-])c4)c(Oc4cnc5[nH]ccc5c4)c3)CC2)=C(c2ccc(Cl)cc2)C1` ?
Resp: 6.8
